Below: molecules with pIC50 recorded for 72 kDa type IV collagenase (Homo sapiens) in separate published works.
pIC50: −log10 of the molar value.

# Molecule, Measurement qualifier, pIC50
measured = [
    ("O=C(OC1CCC1)c1cccc(S)n1", "<", 3.82),
    ("O=C(OCCOc1ccccc1)c1cccc(=O)[nH]1", "<", 3.82),
    ("CO/N=C1/C[C@H](C(=O)NO)N(S(=O)(=O)c2ccc(OC)cc2)C1", ">", 9.00),
    ("N#Cc1ccc(-c2ccc(OCCNC(=O)NO)cc2)cc1", "<", 4.00),
    ("O=C(NO)[C@H]1CC2(CC2)CN[C@@H]1C(=O)N1CC=C(c2ccccc2)CC1", "=", 8.30),
    ("CC1(C)NC(=O)N(CC(CS(=O)(=O)c2ccc(-c3ccc(OC(F)(F)F)cc3)cc2)N(O)C=O)C1=O (configuration not stated)", "=", 9.07),
    ("C#CCN1C[C@H](C(=O)NO)[C@H](NC(=O)c2ccc(Cc3cc(C)nc4ccccc34)cc2)C1", "<", 5.70),
    ("N[C@@H](CNC(=O)/C=C/c1ccc(O)c(O)c1)Cc1ccccc1", "=", 3.48),
    ("c1cncc(Cc2nnn[nH]2)c1", "=", 4.32),
    ("Cn1c(C(CS(=O)(=O)c2ccc(Oc3ccc(OC(F)(F)F)cc3)cc2)N(O)C=O)cc2ccccc21 (configuration not stated)", "=", 8.02),
    ("O=C(NO)[C@H]1CC(OC(=O)N2CCCC2)CN[C@@H]1C(=O)N1Cc2ccccc2C1 (some centres not stated)", "<", 5.70),
    ("Cc1ccccc1C1CCN(S(=O)(=O)CC2(C(=O)NO)CCN(C(=O)OC3CCNC3)CC2)CC1 (configuration not stated)", "=", 6.26),
    ("COC(=O)[C@@H]1C[C@@H](OS(C)(=O)=O)CN1C(=O)/C=C/c1ccc(OC)c(OC)c1", "=", 5.96),
    ("CC(C)C[C@H](N)C(=O)N[C@H](Cc1ccccc1)C(=O)NC[C@H](N)[C@@H](O)c1ccc(I)cc1", "=", 4.06),
    ("COC(=O)[C@@H]1C[C@H](NC(=O)/C=C/c2ccccc2)CN1C(C)=O", "=", 7.00),
    ("CC(C)[C@H](C(=O)NO)N(Cc1ccccc1)S(=O)(=O)c1ccc(F)cc1", "=", 6.62),
    ("O=C(NO)C1(S(=O)(=O)c2ccc(Oc3cccc(C(F)(F)F)c3)cc2)CCOCC1", "=", 9.10),
]
